Molecular target: T1, PriB E41A (Neisseria gonorrhoeae FA1090, UniProt Q5F924 1-100, E41A)
T1 sequence: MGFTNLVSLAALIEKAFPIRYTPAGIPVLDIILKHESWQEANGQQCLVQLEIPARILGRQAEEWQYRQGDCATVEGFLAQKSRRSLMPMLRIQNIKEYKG
Assay: fluorescence anisotropy
PROPERTY LABEL: pKd
Answers are plain numbers, as −log10 of the molar value.

[in] Return reported pKd. Input binder: GCCGTGATCACCAATGCAGATTGACGAACCTTTGCC (ssDNA) [36-base fluoro-ssDNA]
[out] 6.86
